Data provenance: patent US12404289B2

Measured EC50 values are reported for all entries that follow.
test system: Respiratory syncytial virus (RSV) strain A2; assay: RSV antiviral assay (HEp-2, 96 well); format: cell-based; details: human respiratory syncytial virus, HEp-2, 96 h, read-out: EC50 RSV HEP2 96, HEp-2 cells, RSV A2, MOI=4, 4 days, 96 well; Table 3
Write down the numeric answer in nM and omit the unit.

Request: Fill blank: measured EC50 of the molecule CCC(=O)O[C@H]1[C@@H](OC(=O)CC)[C@](C#N)(c2ccc3c(N)ncnn23)O[C@@H]1COP(=O)(N[C@@H](C)C(=O)OCC(CC)CC)Oc1ccc(C(C)(C)C)cc1 (some centres unmarked) [Example 110] is ____.
Response: 57.6

Request: Field entry: CCC(CC)COC(=O)[C@H](C)NP(=O)(OC[C@H]1O[C@@](C#N)(c2ccc3c(N)ncnn23)[C@H](OC(=O)C(C)C)[C@@H]1OC(=O)C(C)C)Oc1cccc(C(C)(C)C)c1 (some centres unmarked) [Example 91]
Response: 194

Request: Field entry: CC(C)C(=O)O[C@H]1[C@@H](OC(=O)C(C)C)[C@](C#N)(c2ccc3c(N)ncnn23)O[C@@H]1COP(=O)(N[C@@H](C)C(=O)OC1CCC1)Oc1cccc2ccccc12 (single isomer, unassigned) [Example 55a]
Response: 7.09

Request: Field entry: CC(C)CC(=O)O[C@H]1[C@@H](OC(=O)CC(C)C)[C@](C#N)(c2ccc3c(N)ncnn23)O[C@@H]1COP(=O)(N[C@@H](C)C(=O)OC1CCC1)Oc1ccccc1 (some centres unmarked) [Example 109]
Response: 43.5

More entries:
Request: Fill blank: measured EC50 of the molecule COC(C)(C)COC(=O)[C@H](C)NP(=O)(OC[C@H]1O[C@@](C#N)(c2ccc3c(N)ncnn23)[C@H](O)[C@@H]1O)Oc1ccc(C(C)(C)C)cc1 (some centres unmarked) [Example 111] is ____.
Response: 846

Request: Field entry: CCC(CC)COC(=O)[C@H](C)NP(=O)(OC[C@H]1O[C@@](C#N)(c2ccc3c(N)ncnn23)[C@H](OC(=O)C(C)C)[C@@H]1OC(=O)C(C)C)Oc1ccc2ccccc2c1 (some centres unmarked) [Example 69a]
Response: 22.1

Request: Field entry: CCOCCOCCOC(=O)[C@H](C)NP(=O)(OC[C@H]1O[C@@](C#N)(c2ccc3c(N)ncnn23)[C@H](OC(=O)C(C)C)[C@@H]1OC(=O)C(C)C)Oc1ccc(C(C)(C)C)cc1 (some centres unmarked) [Example 115]
Response: 62.6

Request: Field entry: CCOC(=O)O[C@H]1[C@@H](OC(=O)OCC)[C@](C#N)(c2ccc3c(N)ncnn23)O[C@@H]1COP(=O)(N[C@@H](C)C(=O)OCC)Oc1ccc(C(C)(C)C)cc1 (some centres unmarked) [Example 124]
Response: 67.1
